For each of the compounds below, state its inhibition.
- target or system: Aminopeptidase N (Plasmodium falciparum (isolate 3D7)) (UniProt O96935)
- Sequence (O96935 whole entry, looked up): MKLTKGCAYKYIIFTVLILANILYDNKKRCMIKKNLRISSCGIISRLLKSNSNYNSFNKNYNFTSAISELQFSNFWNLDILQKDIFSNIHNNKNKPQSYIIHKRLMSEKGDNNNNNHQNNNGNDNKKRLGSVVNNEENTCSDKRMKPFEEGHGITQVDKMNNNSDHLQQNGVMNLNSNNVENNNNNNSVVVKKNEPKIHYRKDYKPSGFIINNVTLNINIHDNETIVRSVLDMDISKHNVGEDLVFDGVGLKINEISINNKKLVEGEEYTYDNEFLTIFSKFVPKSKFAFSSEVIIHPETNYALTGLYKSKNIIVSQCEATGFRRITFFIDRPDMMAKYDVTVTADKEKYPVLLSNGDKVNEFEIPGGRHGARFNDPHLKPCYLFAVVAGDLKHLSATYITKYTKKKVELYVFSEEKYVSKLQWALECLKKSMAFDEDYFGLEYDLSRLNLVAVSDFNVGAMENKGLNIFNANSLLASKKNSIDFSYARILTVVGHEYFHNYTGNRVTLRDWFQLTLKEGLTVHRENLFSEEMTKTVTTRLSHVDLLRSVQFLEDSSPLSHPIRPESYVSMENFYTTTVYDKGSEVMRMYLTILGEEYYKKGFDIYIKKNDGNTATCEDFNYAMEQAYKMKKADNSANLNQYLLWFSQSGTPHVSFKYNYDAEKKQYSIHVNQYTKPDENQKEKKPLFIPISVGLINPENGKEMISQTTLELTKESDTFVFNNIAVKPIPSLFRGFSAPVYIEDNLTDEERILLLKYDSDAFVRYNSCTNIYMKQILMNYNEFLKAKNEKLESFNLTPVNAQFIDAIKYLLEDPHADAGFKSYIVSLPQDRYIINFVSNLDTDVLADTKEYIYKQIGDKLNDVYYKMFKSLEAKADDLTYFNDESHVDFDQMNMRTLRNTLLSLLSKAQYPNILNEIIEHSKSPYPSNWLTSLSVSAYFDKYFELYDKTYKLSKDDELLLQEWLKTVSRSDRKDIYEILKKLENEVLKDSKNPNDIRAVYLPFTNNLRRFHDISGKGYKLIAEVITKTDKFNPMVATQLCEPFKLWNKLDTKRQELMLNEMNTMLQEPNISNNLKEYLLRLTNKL
- measurement notes: malaria alanyl aminopeptidase activity blockers – biochemical, fluorogenic H-Leu-NHMec substrate, 1536-well (AID 1445);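 note: plate controls were DMSO full reaction for no effect and no enzyme background for full effect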
- stated conditions: recombinant M1AAP, H-Leu-NHMec fluorogenic kinetic assay; at 30 µM, active compounds read high unless noted
Hit rate of the full screen: of about 220,000 compounds, about 910 (0.41%) were called active. This is one part of a sample in which actives are shown more often than they occur. Entries with a potency or affinity are not part of this list.

N#Cc1nc(Cc2cccc3ccccc23)oc1NCCCN1CCOCC1 has a reported inhibition of 6.12% (inactive)

Per the record, Cc1ccc(S(=O)(=O)CCc2nnc(NC(=O)c3cccs3)s2)cc1 has inhibition of -1.23% (inactive)

Entry CCN(CC)CCCNc1oc(-c2cccc(Cl)c2)nc1C#N ; inhibition = 12.2% (inactive)

// recorded inhibition for CCOC(=O)C1CCCN(CC(=O)c2c[nH]c3ccc(C)cc23)C1 (stereo not given) : 5.27% (inactive)

// O=C(NCCCn1ccnc1)/C(=C\c1cccs1)NC(=O)c1ccco1 : inhibition value = 2.24% (inactive)

Field inhibition (entry CCN(CC(=O)Nc1ccccc1OC)C(=O)COc1ccc2ccccc2c1 ) reads 5.71% (inactive)

Input Cc1ccc(Oc2ccc(OCC(=O)NC(C)C(=O)O)cc2)cc1 (stereo not given) . Output inhibition: 12.1% (inactive)

The recorded inhibition for Cn1c(CSc2nc3ccccc3n2C)nc2ccccc21 is -4.15% (inactive)

Consider COc1ccc(C(=O)NNC(=O)CSc2nnc(C)n2C)cc1 . Its measured inhibition is 1% (inactive)

Noted for CCC(=O)NC(=S)NNC(=O)COc1ccc(Br)cc1 : its inhibition reads -1.75% (inactive)

Memo: COc1ccc(C(=O)NNC(=O)CSc2nnc(-c3cccnc3)n2C)cc1 , reported inhibition: 10.3% (inactive)

Value of inhibition reported for the compound COc1ccc(-n2c(Cc3cccn3C)nnc2SCC(=O)Nc2ccc(F)cc2)cc1 is 12% (inactive)

The value of inhibition measured for the compound Cc1ccc(C2C=C(c3ccccc3)Nc3nc(N4C(=O)CCC4=O)nn32)cc1 (stereo not given) turned out to be 4.75% (inactive)

The compound Cc1ccc(-c2nnc(SCC(=O)Nc3ccc4c(c3)oc3ccccc34)n2C)c(Cl)c1 showed inhibition equal to 3.17% (inactive)

// COc1cccc2[nH]c3c(=O)n(CCCN4CCOCC4)cnc3c12 : inhibition value = 4.76% (inactive)

The recorded inhibition for CC1CCCCN1C(=S)NC(=O)c1cccs1 (stereo not given) is 13.7% (inactive)

Just so you know, measured inhibition for Cc1cccc2cc(COC(=O)C(C)(C)C)c(=O)[nH]c12 came out at 4.55% (inactive)

Entry CCOC(=O)NCc1cc(-c2nn(C)c(=O)c3ccccc23)ccc1C , inhibition reported as -0.16% (inactive)

Notebook: COc1ccc(NC(=O)CSc2nnc(Cc3cccn3C)n2-c2ccc(F)cc2)cc1 , inhibition read as 23.8% (active)

Query CC(=O)Nc1ccc(-c2nnc(SCC(=O)Nc3ccc4c(c3)oc3ccccc34)n2C)cc1 yields inhibition of 8.23% (inactive)

inhibition recorded for this compound, O=C(CO/N=C/c1c(Cl)cccc1Cl)NNC(=O)c1cccc(Cl)c1 , is 0.37% (inactive)

# inhibition (compound: O=C(Nc1cccc(O)c1)c1cnn2cccnc12 ) is 13.6% (inactive)

Recorded result, O=[N+]([O-])c1cc(S(=O)(=O)N2CCCC2)ccc1NCCCN1CCOCC1 , inhibition: 4.04% (inactive)

# inhibition of Nc1cc(-c2ccccc2)nn1Cc1ccc(Cl)cc1 = 25.7% (active)

Recorded inhibition (compound O=C1CC(N(Cc2ccc3c(c2)OCO3)C(=O)Nc2ccc(F)cc2)C(=O)N1c1ccccc1 (stereo not given) ): 20.8% (inactive)

Record N#Cc1nc(COc2ccc(-c3ccccc3)cc2)oc1NCCCN1CCOCC1 . Reported inhibition: -3.18% (inactive)

Looking up Cc1ccc(N2/C(=N/c3nc(C)cc(C)n3)NC(=O)CC2C(=O)O)cc1 (stereo not given) , I found its inhibition recorded as -5.89% (inactive)

Short answer for CC(=O)NC(=S)NNC(=O)COc1ccc([N+](=O)[O-])cc1 : inhibition was -19.9% (inactive)

Noted for Cc1ccc(S(=O)(=O)N(C)Cc2ccc(C(=O)N/N=C/c3ccc(OC(F)F)cc3)cc2)cc1 : its inhibition reads -2.98% (inactive)

// CC(=O)NCc1cc(-c2nn(C)c(=O)c3ccccc23)ccc1C : inhibition value = 12.1% (inactive)

Looking up NC(N)=Nc1nc(-c2ccccc2)c2ccccc2n1 , I found its inhibition recorded as 5.22% (inactive)

Looking up CCN1C(=O)[C@H]2[C@H]3[C@H](O)[C@H](O)C/C(=N\O[C@H](C)c4cn([C@H](CO)Cc5ccccc5)nn4)[C@@H]3CC[C@H]2C1=O , I see its inhibition listed as -7.3% (inactive)

# inhibition (compound: COc1ccc(-c2nnc(SCC(=O)Nc3ccccc3)n2C)cc1 ) is 0.31% (inactive)

Measured inhibition, Cc1ccc(S(=O)(=O)C2CS(=O)(=O)CC2O)cc1 (stereo not given) : -0.11% (inactive)

For Nc1cc(-c2ccccc2)nn1Cc1ccccc1 the compound record lists inhibition as 34.3% (inactive)

inhibition in this record for CCC(=O)NCc1cc(-c2nn(C)c(=O)c3ccccc23)ccc1C : 3.73% (inactive)

Note to self: inhibition recorded for Nc1nnc(CC(=O)N/N=C/c2ccc([N+](=O)[O-])cc2)s1 was 9.02% (inactive)

Note to self: inhibition recorded for CC(C)(C)NC(=O)Cn1nnc(-c2ccc(S(C)(=O)=O)cc2)n1 was 9.97% (inactive)

# inhibition of FC(F)(F)c1nc2ccccc2[nH]1 = -1.24% (inactive)

Value of measured inhibition for the entry O=C(O)c1cccc2[nH]c(C(F)(F)F)nc12 : 9.3% (inactive)

Field inhibition (entry Cc1ccc(S(=O)(=O)N2CCN(C(=O)CC(C)(C)C)CC2)cc1 ) reads 3.77% (inactive)

Cc1ccc(-c2cc(N)n(Cc3ccc(Cl)cc3)n2)cc1 yielded inhibition of 12.9% (inactive)

Noted for O=C1CC(N(Cc2ccco2)C(=O)Nc2ccc(F)cc2)C(=O)N1c1ccc(F)cc1 (stereo not given) : its inhibition reads 23.6% (active)

In plain terms, CS(C)(=O)=NS(=O)(=O)c1ccc(Cl)cc1 has a documented inhibition of 1.82% (inactive)

Value of measured inhibition for the entry CNc1oc(-c2cccs2)nc1C#N : 13% (inactive)
